# Tested on: Escherichia coli
# ASSAY: Inhibition of Escherichia coli FabB at 200 uM by radiochemical assay
Reported inhibition by item:
RESULT TYPE: inhibition (%)

* N#Cc1ccc2oc(=O)n(CN3CCCC3c3cccc(Br)c3)c2c1 (racemic) | 42.1
* O=c1oc2cc(Cl)ccc2n1CN1CCCCC1c1ccccc1 (racemic) | 38
* O=c1oc2cc(Cl)ccc2n1CN(Cc1ccccn1)C1CC1 | 30
* O=c1oc2cc(Br)ccc2n1CN1CCC2(CC1)OCCO2 | 32.7
* CC(CN(C)Cn1c(=O)oc2cc(Cl)ccc21)N1CCOCC1 (racemic) | 24.3
* O=c1sc2ccc(Cl)cc2n1CN1CCCC1c1cccc(Br)c1 (racemic) | 36.1
* O=c1oc2cc(Cl)ccc2n1CN(Cc1cccnc1)C1CC1 | 23.6
* O=c1oc2ccccc2n1CN(Cc1ccc(F)cc1)C1CC1 | 5
* O=c1oc2ccccc2n1CN1CCCC1 | 24
* O=c1oc2ccc(Cl)cc2n1CN1CCCC1c1cccc(Br)c1 (racemic) | 55.4
* CN(Cc1cccc(O)c1)Cn1c(=O)oc2ccc(Cl)cc21 | 41.4
* O=c1oc2ccc(Cl)cc2n1CN(CC1CCOC1)C1CC1 (racemic) | 36.7
* CN(CC1CCCC1)Cn1c(=O)oc2ccc(Cl)cc21 | 17.7
* O=c1oc2ccc(Cl)cc2n1CN1CCCCC1c1ccccc1 (racemic) | 30.4
* CN1CCC(CN(C)Cn2c(=O)oc3cc(Cl)ccc32)C1 (racemic) | 23.8
* O=c1oc2ccc(Cl)cc2n1CN1CCCC2(CCOCC2)C1 | 37.7
* O=c1oc2cc(Cl)ccc2n1CN(CC1CCOC1)C1CC1 (racemic) | 24.1
* CN(Cc1ccccc1)Cn1c(=O)oc2ccccc21 | 33.5
* O=c1oc2ccc(Cl)cc2n1CN1CCC1c1ccccc1 (racemic) | 31.9
* O=c1oc2cc(Cl)ccc2n1CN1CCCC2(CCOCC2)C1 | 38.8
* Cc1ccc2oc(=O)n(CN(CC3CCOC3)C3CC3)c2c1 (racemic) | 40.1
* CN(CCN1CCCC1)Cn1c(=O)oc2cc(Cl)ccc21 | 26.4
* O=c1oc2cc(Br)ccc2n1CN(CC1CCCC1)C1CC1 | 17.7

----------
# System: Escherichia coli
# ASSAY: Inhibition of Escherichia coli FabB at 200 uM by radiochemical assay
A collection of molecules and their measured inhibition
RESULT TYPE: inhibition (%)

* COc1cccc(C2CCCN2Cn2c(=O)oc3ccc(Cl)cc32)c1 (racemic) | 37.1
* CN(Cc1ccsc1)Cn1c(=O)oc2ccccc21 | 30
* O=c1oc2cc(Cl)ccc2n1CN(Cc1ccc(F)cc1)C1CC1 | 32.1
* COc1cccc(CN(Cn2c(=O)oc3cc(Cl)ccc32)C2CC2)c1 | 28.3
* CN(CC1CCOCC1)Cn1c(=O)oc2cc(Cl)ccc21 | 31.7
* O=c1oc2ccccc2n1CN(Cc1ccsc1)C1CC1 | 37.8
* COc1cccc(C2CCCN2Cn2c(=O)oc3cc(Cl)ccc32)c1 (racemic) | 36.4

Attribution: ChEMBL document CHEMBL3259759
